Study target: recombinant DYRK1A kinase (Homo sapiens (Human))
Assay explanation: DYRK1A kinase assay (Ser/Thr 18 peptide Z-lyte FRET assay)
Condition summary: DYRK1A kinase activity; 15 μM ATP, 1 h room temperature; method text calls the value IC50
Procedure: Representative compounds were screened using the assay procedure for DYRK1A kinase activity as described below. Each compound was dissolved in DMSO as a 10 mM stock and used to prepare compound source plates. […] The Emission ratio (Em) was calculated as a ratio of the coumarin (C) emission signal (at 445 nm)/Fluorescein (F) emission signal (at 520 nm). The percent phosphorylation was then calculated using the following formula: [1−((Em ratio×F100%)−C100%)/((C0%−C100%)+(Em ratio×(F100%−F0%)))]. […]
Measured parameter: EC50 (nM)
Expressed in nM, but write only the number.

# Molecule, EC50 (nM)
measured = [
    ("FC(F)(F)CNc1ncc2c(-c3ccc4nccn4c3)c[nH]c2n1", 4.6),
    ("c1cc2cc(-c3c[nH]c4nc(NC5CC6(COC6)C5)ncc34)ccn2n1", 385),
    ("FC(F)(F)O[C@H]1CC[C@@H](Nc2ncc3c(-c4ccn5nccc5c4)c[nH]c3n2)CC1", 690),
    ("c1cnc2sc(-c3c[nH]c4ncncc34)nc2c1", 22.1),
    ("CCOc1ncc2c(-c3cc(F)c4ncc(C)n4c3)c[nH]c2n1", 93.6),
    ("C[C@]1(O)CC[C@@H](Nc2ncc3c(-c4ccc5nccn5c4)c[nH]c3n2)CC1 [Compound 2235]", 7.4),
]

Can you share its EC50? I mean this molecule: C[C@H](Nc1ncc2c(-c3ccn4ncnc4c3)c[nH]c2n1)C(F)(F)F
165

Can you share its EC50? I mean this molecule: O=C(NCC(F)F)c1cnc2ccc(-c3c[nH]c4nc(C5CC5)ncc34)cn12
1.2

---

pEC50: recorded values
Study target: recombinant DYRK1A kinase (Homo sapiens (Human), UniProt Q13627)
Assay explanation: DYRK1A kinase assay (Ser/Thr 18 peptide Z-lyte FRET assay)
Type: biochemical
Condition summary: DYRK1A kinase activity; 15 μM ATP, 1 h room temperature; method text calls the value IC50
Just so you know, pEC50 here is -log10 of the concentration in molar units; reply with that number alone.

// below: answered compounds
# Structure, pEC50
data = [
    ("CN(C)C(=O)c1cnn2ccc(-c3c[nH]c4nc(C5CC5)ncc34)cc12", 6.74),
    ("COc1nc(N[C@H]2CCCOC2)nc2[nH]cc(-c3ccn4nccc4c3)c12", 6.92),
    ("CC[C@H](C)Nc1ncc2c(-c3cc(F)c4ncc(C)n4c3)c[nH]c2n1", 7.90),
    ("CC(C)Cc1ncc2c(-c3ccn4nccc4n3)c[nH]c2n1", 6.67),
    ("COc1nc(N[C@H]2CC[C@@](C)(O)CC2)nc2[nH]cc(-c3ccn4nccc4c3)c12", 8.37),
    ("OCCO[C@H]1CC[C@@H](Nc2ncc3c(-c4ccn5nccc5c4)c[nH]c3n2)CC1", 8.41),
]

Test system recombinant DYRK1A kinase (Homo sapiens (Human), UniProt Q13627); read-out pEC50; what value for c1cnc2cc(-c3c[nH]c4nc(NC5CCOCC5)ncc34)ccc2n1 ?
8.11

Test system recombinant DYRK1A kinase (Homo sapiens (Human), UniProt Q13627); read-out pEC50; what value for CNc1nc(NC2CCC3(CC2)COC3)nc2[nH]cc(-c3ccn4nccc4n3)c12 ?
8.72

---

EC50: recorded values
Study target: recombinant DYRK1A kinase (Homo sapiens (Human))
Assay explanation: DYRK1A kinase assay (Ser/Thr 18 peptide Z-lyte FRET assay)
Condition summary: DYRK1A kinase activity; 15 μM ATP, 1 h room temperature; method text calls the value IC50
The reply should read as a number followed by its unit.

// below: answered compounds
# Structure, Measured parameter, Recorded result
rows = [
    ("CCOc1nc(N[C@H]2CC[C@@H](O)CC2)nc2[nH]cc(-c3cc(F)c4nccn4c3)c12", "EC50", "3 nM"),
    ("CC(C)(F)CNc1ncc2c(-c3ccn4nccc4n3)c[nH]c2n1", "EC50", "3.9 nM"),
    ("CC(C)(C)Nc1ncc2c(-c3ccc4ncnn4c3)c[nH]c2n1", "EC50", "415 nM"),
]

Can you share its EC50? I mean this compound: COc1nc(NC2CCC(F)(F)CC2)nc2[nH]cc(-c3ccc4nccn4c3)c12
26.9 nM

---

Study target: recombinant DYRK1A kinase (Homo sapiens (Human))
Assay explanation: DYRK1A kinase assay (Ser/Thr 18 peptide Z-lyte FRET assay)
Condition summary: DYRK1A kinase activity; 15 μM ATP, 1 h room temperature; method text calls the value IC50
Measured parameter: pEC50
Just so you know, pEC50 here is -log10 of the concentration in molar units; reply with that number alone.

// below: answered compounds
# Structure, Recorded result
measured = [
    ("c1cnc2ccc(-c3c[nH]c4nc(NC5CCOCC5)ncc34)cc2c1", 8.22),
    ("COC[C@@H](C)Nc1nc(OC)c2c(-c3ccc4nc(C)n(CC(F)F)c4n3)c[nH]c2n1", 6.00),
]

Test system recombinant DYRK1A kinase (Homo sapiens (Human)); read-out pEC50; what value for [2H]C([2H])([2H])O[C@H]1CC[C@@H](Nc2ncc3c(-c4cc(F)c5nccn5c4)c[nH]c3n2)CC1 ?
8.41

Test system recombinant DYRK1A kinase (Homo sapiens (Human)); read-out pEC50; what value for CN1CCN(c2ncnc3ccc(-c4c[nH]c5nc(C6CC6)ncc45)cc23)CC1 ?
7.15

---

pEC50: recorded values
Study target: recombinant DYRK1A kinase (Homo sapiens (Human))
Assay explanation: DYRK1A kinase assay (Ser/Thr 18 peptide Z-lyte FRET assay)
Condition summary: DYRK1A kinase activity; 15 μM ATP, 1 h room temperature; method text calls the value IC50
Just so you know, pEC50 here is -log10 of the concentration in molar units; reply with that number alone.

// below: answered compounds
# Compound, pEC50
rows = [
    ("COC[C@H](C)Nc1ncc2c(-c3ccc4ncc(F)n4c3)c[nH]c2n1 [Compound 161]", 7.58),
    ("CN1CCC(Nc2ncc3c(-c4ccc5nnn(C)c5c4)c[nH]c3n2)CC1 [Compound 841]", 7.87),
    ("CC(C)(F)CNc1ncc2c(-c3ccc4ncc(Cl)n4n3)c[nH]c2n1 [Compound 952]", 8.57),
    ("COc1nc(NCC(C)(C)F)nc2[nH]cc(-c3ccn4nccc4c3)c12 [Compound 2305]", 7.66),
    ("FC(F)CO[C@H]1CC[C@@H](Nc2ncc3c(-c4ccc5nccn5n4)c[nH]c3n2)CC1 [Compound 2199]", 8.66),
]

Can you share its pEC50? I mean this compound: C[C@@H](Nc1ncc2c(-c3ccc4nccnc4c3)c[nH]c2n1)C(F)(F)F [Compound 1916]
8.22

Can you share its pEC50? I mean this compound: CCOc1nc(N[C@H]2CC[C@@](C)(O)CC2)nc2[nH]cc(-c3ccc4nccn4c3)c12 [Compound 2254]
7.59

Can you share its pEC50? I mean this compound: c1cnc2ccc(-c3c[nH]c4ncnc(N[C@H]5CC[C@H](N6CCOCC6)CC5)c34)cc2c1 [Compound 1898]
8.12

---

log10 EC50: recorded values
Study target: recombinant DYRK1A kinase (Homo sapiens (Human))
Assay explanation: DYRK1A kinase assay (Ser/Thr 18 peptide Z-lyte FRET assay)
Type: biochemical
Condition summary: DYRK1A kinase activity; 15 μM ATP, 1 h room temperature; method text calls the value IC50
Reminder: these figures are log10 of reported EC50, in nM before transformation.

// below: answered compounds
# Structure, Study target, log10 EC50
measured = [
    ("CC(C)(F)CNc1ncc2c(-c3ccn4ncnc4c3)c[nH]c2n1", "recombinant DYRK1A kinase (Homo sapiens (Human))", 1.05),
    ("C[C@]1(O)CC[C@@H](Nc2ncc3c(-c4ccc5nccn5n4)c[nH]c3n2)CC1", "recombinant DYRK1A kinase (Homo sapiens (Human))", 0.41),
    ("CC(C)(C)CNc1ncc2c(-c3ccc4nccn4n3)c[nH]c2n1", "recombinant DYRK1A kinase (Homo sapiens (Human))", 0.94),
    ("COC[C@@H](C)Nc1nc(OC)c2c(-c3ccc4nccn4n3)c[nH]c2n1", "recombinant DYRK1A kinase (Homo sapiens (Human))", 2.36),
]

Pending compound:
Can you share its log10 EC50? I mean this compound: CC(C)(F)CNc1ncc2c(-c3ccc(C(F)F)nc3)c[nH]c2n1
3.15

---

Study target: recombinant DYRK1A kinase (Homo sapiens (Human), UniProt Q13627)
Assay explanation: DYRK1A kinase assay (Ser/Thr 18 peptide Z-lyte FRET assay)
Format: biochemical
Condition summary: DYRK1A kinase activity; 15 μM ATP, 1 h room temperature; method text calls the value IC50
Measured parameter: pEC50
Just so you know, pEC50 here is -log10 of the concentration in molar units; reply with that number alone.

# Structure, Measured parameter, Recorded result
measured = [
    ("Cc1cnc2c(F)cc(-c3c[nH]c4nc(C5CC5)ncc34)cn12", "pEC50", 7.55),
    ("COC[C@@H](C)Nc1nc(OC)c2c(-c3cnc4nc(C)n(CC(F)F)c4c3)c[nH]c2n1", "pEC50", 6.95),
    ("COc1nc(N[C@H]2CC[C@@H](OC(F)(F)F)CC2)nc2[nH]cc(-c3ccc4nccn4c3)c12", "pEC50", 6.88),
]

Pending compound:
Can you share its pEC50? I mean this compound: Fc1cc(-c2c[nH]c3nc(N[C@H]4CC[C@@H](OCC(F)F)CC4)ncc23)cn2ccnc12
8.29

The origin of these recorded values is patent US20250129104A1.
